The origin of these recorded values is the RNAGym collection of RNA variant scans (doi:10.1073/pnas.2313332121).

Measured polymerase ribozyme fitness (log ratio) by item
B1: TPR t1 (parent)
chain: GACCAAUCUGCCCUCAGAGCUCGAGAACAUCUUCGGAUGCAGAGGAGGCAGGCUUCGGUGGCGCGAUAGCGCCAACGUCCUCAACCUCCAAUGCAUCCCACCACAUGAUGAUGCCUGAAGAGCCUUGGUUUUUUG

Variants of: B1
Experiment: polymerase ribozyme fitness, log enrichment relative to wild type (log ratio); higher = more active; in vitro selection for triplet polymerase activity
Format: numeric value only, no unit, no commentary.

### Prompt Which value of polymerase ribozyme fitness (log ratio) has been reported for GACCAAUCUGCCCUCAGAGCUCGAGAACAUCUUCGGAUGCAGAGGAGGCAUGCUUAGGUGGCGCGAUAUCGCCAACGUCCUCAACCUCCAAUGCAUCCCACCACACGAUGAUGCCUGAAGAGCCUUGGUUUUUUG [G51U C56A G69U U106C] in the records?
### Response -1.79

### Prompt What polymerase ribozyme fitness (log ratio) value was documented for this variant, GCCCGACCUGCCAUCAGAGCUCGAGAACAUCUUCGGAUGCAGAGGAGUCUGGCUUCGGUGGCGCGAUAGCGCCAACGUCCUCAACCUCCAACGCAUUCCACCACAUGAUGAUGCCUGAAGAGUCUUGGUUUUUUG [A2C A5G U7C C13A G48U A50U U92C C97U C123U] ?
### Response -4.24

### Prompt For the variant shown here, GACCAAUCUGCCCUCAGAGCUCGAGAACAUCUUCGGAUGCAGAGAAGGCAGGCUUCGGUGGCGCGAUAGCGCCAACGUCCUCAACCUACAAUGCAUCCCACCACAUGAUGAUGCCUGAAGAGCCUUGGUUUUUUG [G45A C88A] , give the reported polymerase ribozyme fitness (log ratio).
### Response -0.795

### Prompt Need polymerase ribozyme fitness (log ratio), item GACCAAUCUGCCCUCAGAGCUCGAGAACAUCUUCGGAUGCAGAGGAGGCAGGCUUCGGUGGCUCGAUAGCGCCAACGUCCUCAACCUCCAAUGCAUCCCACCACAUGGUGAUGCCUGAAGAGCCUUGGUUUUUUG [G63U A108G]
### Response -3.13
